FYI, the data here is from patent US5998362A.

- ASSAY_SYSTEM: free PSA (Homo sapiens, UniProt P07288)
- Sequence (P07288 25-261): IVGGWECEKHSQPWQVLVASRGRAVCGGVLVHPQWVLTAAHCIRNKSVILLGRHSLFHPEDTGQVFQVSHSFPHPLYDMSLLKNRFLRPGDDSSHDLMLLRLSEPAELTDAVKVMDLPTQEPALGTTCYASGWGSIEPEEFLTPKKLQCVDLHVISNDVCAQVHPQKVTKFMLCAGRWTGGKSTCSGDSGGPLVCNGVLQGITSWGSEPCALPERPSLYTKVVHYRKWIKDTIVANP
- METHOD_SUMMARY: Recognition of oligopeptides by free PSA (time to 50% cleavage, HPLC)
- CONDITION_INFO: free psa, pH 8
Where a SMILES comes first, the peptide text is derived from it. [ ]: non-standard residue; d: D form. The star is where a group is joined. Glyceroyl(2S) = O=C([C@@H](O)CO)*; Glyceroyl(2R) = O=C([C@H](O)CO)*; hArg = N=C(N)NCCCC[C@H](N)C(=O)O; 3Pal = N[C@@H](Cc1cccnc1)C(=O)O; Chg = N[C@H](C(=O)O)C1CCCCC1; hSer = N[C@@H](CCO)C(=O)O; Glycolyl = O=C(CO)*; X3 = O=C(C(O)CO)*
EXPERIMENTAL_ENDPOINT: Time to 50% Substrate Cleavage by York PSA

>  <COMPOUND>
CC(C)C[C@H](NC(=O)[C@H](CO)NC(=O)[C@H](CCC(N)=O)NC(=O)[C@@H](NC(=O)[C@H](CO)NC(=O)[C@H](CO)NC(=O)[C@H](Cc1cccnc1)NC(=O)[C@H](O)CO)C1CCCCC1)C(=O)O ({Glyceroyl(2R)}-[3Pal]SS[Chg]QSL-OH)

>  <ASSAY_SYSTEM>
free PSA (Homo sapiens, UniProt P07288)

>  <RESULT>
80 min

$$$$
>  <COMPOUND>
CC(C)C[C@H](NC(=O)[C@H](CO)NC(=O)[C@H](CCC(N)=O)NC(=O)[C@@H](NC(=O)[C@H](CO)NC(=O)[C@H](CO)NC(=O)CO)C1CCCCC1)C(=O)O [2-hydroxyacetyl-SSChgQ-SL-acid] (Glycolyl-SS[Chg]QSL-OH)

>  <ASSAY_SYSTEM>
free PSA (Homo sapiens, UniProt P07288)

>  <RESULT>
180 min

$$$$
>  <COMPOUND>
CC(C)C[C@H](NC(=O)[C@H](CO)NC(=O)[C@H](CCC(N)=O)NC(=O)[C@@H](NC(=O)[C@H](CO)NC(=O)[C@H](CO)NC(=O)[C@H](CO)NC(=O)CO)C1CCCCC1)C(=O)O [(OH-Ac)SSSChgQ-SL-acid] (Glycolyl-SSS[Chg]QSL-OH)

>  <ASSAY_SYSTEM>
free PSA (Homo sapiens, UniProt P07288)

>  <RESULT>
120 min

$$$$
>  <COMPOUND>
CC(C)C[C@H](NC(=O)[C@H](CO)NC(=O)[C@H](CCC(N)=O)NC(=O)[C@@H](NC(=O)[C@H](CO)NC(=O)[C@H](CO)NC(=O)[C@H](Cc1cccnc1)NC(=O)[C@@H](O)CO)C1CCCCC1)C(=O)O ({Glyceroyl(2S)}-[3Pal]SS[Chg]QSL-OH)

>  <ASSAY_SYSTEM>
free PSA (Homo sapiens, UniProt P07288)

>  <RESULT>
70 min

$$$$
>  <COMPOUND>
COCCOCCOCCOCCOCCOCCOCCOCCOCCOCCOCCOCCOCCOCCOCCOCCOCCOCCOCCOCC(=O)N[C@@H](CO)C(=O)N[C@@H](CCCCNC(=N)N)C(=O)N[C@@H](Cc1ccc(O)cc1)C(=O)N[C@@H](CCC(N)=O)C(=O)N[C@@H](CO)C(=O)N[C@@H](CC(C)C)C(=O)O

>  <ASSAY_SYSTEM>
free PSA (Homo sapiens, UniProt P07288)

>  <RESULT>
60 min

$$$$
>  <COMPOUND>
CC(C)C[C@H](NC(=O)[C@H](CO)NC(=O)[C@H](CCC(N)=O)NC(=O)[C@@H](NC(=O)[C@H](CO)NC(=O)[C@H](CO)NC(=O)[C@H](CCO)NC(=O)C(O)CO)C1CCCCC1)C(=O)O (stereo partly shown) [2,3-dihydroxypropionyl-hSSSChgQ-SL-acid] (X3-[hSer]SS[Chg]QSL-OH)

>  <ASSAY_SYSTEM>
free PSA (Homo sapiens, UniProt P07288)

>  <RESULT>
160 min

$$$$
>  <COMPOUND>
CC(=O)N[C@@H](CCCCNC(=N)N)C(=O)N[C@@H](CO)C(=O)N[C@@H](CO)C(=O)N[C@H](C(=O)N[C@@H](CCC(N)=O)C(=O)N[C@@H](CO)C(=O)N[C@@H](CC(C)C)C(=O)O)C1CCCCC1 [AChRSSChgQ-SL-acid] (Ac-[hArg]SS[Chg]QSL-OH)

>  <ASSAY_SYSTEM>
free PSA (Homo sapiens, UniProt P07288)

>  <RESULT>
120 min

$$$$
